molecular target: COX-2 (cyclooxygenase enzyme-2) (Homo sapiens); construct: gene PTGS2; experiment: biochemical; parameters: In vitro cyclooxygenase (COX-1 and COX-2) enzyme inhibition assay, percent inhibition; details: read-out: % inhibition
Sequence (P35354 18-604): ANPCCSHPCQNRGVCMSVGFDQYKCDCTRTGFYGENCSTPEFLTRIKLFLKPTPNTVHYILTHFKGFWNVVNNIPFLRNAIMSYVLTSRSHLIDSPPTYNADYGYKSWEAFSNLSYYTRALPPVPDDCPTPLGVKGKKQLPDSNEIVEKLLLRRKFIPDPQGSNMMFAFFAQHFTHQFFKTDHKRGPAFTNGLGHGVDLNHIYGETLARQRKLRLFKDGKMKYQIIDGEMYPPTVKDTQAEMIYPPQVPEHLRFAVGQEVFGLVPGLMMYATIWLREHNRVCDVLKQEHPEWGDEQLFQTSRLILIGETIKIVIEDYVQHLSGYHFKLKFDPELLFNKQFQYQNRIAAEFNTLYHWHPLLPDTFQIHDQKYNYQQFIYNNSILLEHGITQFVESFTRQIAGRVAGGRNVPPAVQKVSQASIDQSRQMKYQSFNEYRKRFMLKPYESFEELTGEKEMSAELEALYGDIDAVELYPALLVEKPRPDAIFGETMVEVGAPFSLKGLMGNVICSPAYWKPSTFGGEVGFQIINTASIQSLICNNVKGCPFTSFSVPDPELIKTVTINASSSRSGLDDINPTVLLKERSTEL
Outcome label depends on inhibition at 25 µg/mL relative to 5%: at/above gives T, below gives F.

INSERT INTO results (compound, classification) VALUES
  ('CC[C@H](C)[C@H](N)C(=O)O', 'T'),
  ('O=c1[nH]cnc2nc[nH]c12', 'T'),
  ('CC(=O)C(=O)O', 'T'),
  ('CCCC(=O)C(=O)O', 'F'),
  ('CN(CC(=O)O)C(=N)N', 'T'),
  ('CCCCCCCCCCCCCCCC(=O)O[C@H]1CC[C@@]2(C)C(=CC[C@H]3[C@@H]4CC[C@H]([C@H](C)CCCC(C)C)[C@@]4(C)CC[C@@H]32)C1 [Cholesteryl palmitate^#]', 'T');
